Ref: paper PMC5540273

- Tested on: PIM2
- condition info: concentration: 1 μM, replicates: in singlicate; n = 1;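 also: KINOMEscan kinase panel screen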
Listing: %Inh of selected compounds
Number only, in %; omit the unit.

Check out these entries, answers already filled in.
[[record]]
compound = "Cc1ccccc1COc1cc(-n2cnc3cc(Cl)ccc32)sc1C(N)=O"
test_system = "PIM2"
assay_metric = "%Inh"
result_value = 18

[[record]]
compound = "CC(C)(C)c1ccc(C(=O)Nc2cn3cc(-c4ccccc4)ccc3n2)cc1"
test_system = "PIM2"
assay_metric = "%Inh"
result_value = 0

[[record]]
compound = "Cc1nn2c(=O)cc(N3CCOCC3)nc2n1Cc1cccc(Cl)c1Cl"
test_system = "PIM2"
assay_metric = "%Inh"
result_value = 0

[[record]]
compound = "CN1C(=O)C(Nc2ccccc2)=C(c2ccccc2)C1=O"
test_system = "PIM2"
assay_metric = "%Inh"
result_value = 0

[[record]]
compound = "CCCNC(=O)Nc1ccc(Oc2ncnc3ccn(C)c23)cc1"
test_system = "PIM2"
assay_metric = "%Inh"
result_value = 5


The value of %Inh measured for the compound COc1ccc(-n2cnc3c(N)ncnc32)cc1 turned out to be 0

%Inh for O=C(Nc1n[nH]c2nc(-c3ccccc3)c(Br)cc12)C1CC1 is 0

// %Inh value for CCC(=O)c1c(-c2ccccc2)c2cc(Cl)ccc2c(=O)n1Cc1cc(S(C)(=O)=O)n(CC(N)=O)n1 : 2

// sample Nc1nccc2scc(-c3ccc4c(c3)CCN4C(=O)Cc3ccccc3)c12 , its %Inh was 0

* * *

- System: FER
- condition info: concentration: 1 μM, replicates: in singlicate; n = 1
assay metric: %Inh (%)
Only the number, expressed in %, is required.

[[record]]
compound = "CCC(=O)c1c(-c2ccccc2)c2cc(Cl)ccc2c(=O)n1Cc1cc(S(C)(=O)=O)n(CCC(C)(C)O)n1"
assay_metric = "%Inh"
measurement_unit = "%"
result_value = 10

[[record]]
compound = "CCc1ccc(-c2ccc3c(c2)-c2nn(C)cc2S(=O)(=O)N3C)cc1"
assay_metric = "%Inh"
measurement_unit = "%"
result_value = 6

[[record]]
compound = "CC(C)(C)c1ccc(C(=O)Nc2cn3cc(-c4ccccc4)ccc3n2)cc1"
assay_metric = "%Inh"
measurement_unit = "%"
result_value = 0

[[record]]
compound = "Nc1ncnc2c1ncn2-c1ccc(Cl)cc1 [AH2635]"
assay_metric = "%Inh"
measurement_unit = "%"
result_value = 26


# %Inh of O=c1cc(N2CCOCC2)nc2n(Cc3ccc(F)c(Cl)c3)ccn12 [GSK2297099] = 0

* * *

- System: ALK
- condition info: concentration: 1 μM, replicates: in singlicate; n = 1
Recorded measurements of %Inh, one per entry
Write the numeric value and follow it with the unit.

Example cases with answers are listed next.
[[record]]
compound = "Nc1ncnc2c1ncn2-c1cccc(F)c1 [SKF-97560]"
test_system = "ALK"
result_value = "43%"

[[record]]
compound = "CN(C)c1cc(-c2ccc3c(N)n[nH]c3c2)nc(N)n1 [GSK2219329]"
test_system = "ALK"
result_value = "0%"

[[record]]
compound = "COc1cc2nccc(Nc3ccc(OCc4ccc(NC(C)=O)cc4)cc3)c2cc1OC.Cl [GW440135]"
test_system = "ALK"
result_value = "5%"

[[record]]
compound = "Cc1cccc(-c2nc(Nc3ccc4c(cnn4C)c3)c3ccccc3n2)n1 [GW876731]"
test_system = "ALK"
result_value = "0%"

[[record]]
compound = "Cc1nc(N(C)[C@H]2CN(C(=O)CC#N)CC[C@H]2C)c2cc[nH]c2n1"
test_system = "ALK"
result_value = "0%"


Cc1ccccc1COc1cc(-n2cnc3cc(Cl)ccc32)sc1C(N)=O [GW813349] yielded %Inh of 23%

For reference, reported %Inh for CC(C)(C)c1ccc(C(=O)Nc2cn3cc(-c4ccccc4)ccc3n2)cc1 stands at 0%
